Tested on: MCF7
Test: Antiproliferative activity against human MCF7 cells after 48 hrs by sulforhodamine B assay
Type: functional, cell-based
Details: MCF7, 48 h
reported-endpoint: pIC50
Notebook: values listed as pIC50 are -log10 of the concentration (mol/L).

Here's what some known entries look like.
1. COc1cc(Nc2nc(C3=CCN(C(=O)c4ccco4)CC3)nc(N3CCOCC3)n2)cc(OC)c1OC    4.49
2. COc1cc(Nc2nc(C3=CCN(S(=O)(=O)c4ccc([N+](=O)[O-])cc4)CC3)nc(N3CCOCC3)n2)cc(OC)c1OC    4.39
3. COc1cc(Nc2nc(C3=CCN(S(=O)(=O)c4ccc(C(C)(C)C)cc4)CC3)nc(N3CCOCC3)n2)cc(OC)c1OC    4.39
4. COc1cc(Nc2nc(C3=CCN(S(=O)(=O)c4ccc(C(C)=O)cc4)CC3)nc(N3CCOCC3)n2)cc(OC)c1OC    4.49
5. COc1cc(Nc2nc(C3=CCN(C(=O)c4ccc([N+](=O)[O-])o4)CC3)nc(N3CCOCC3)n2)cc(OC)c1OC    4.93

Which measured pIC50 value corresponds to COc1cc(Nc2nc(C3=CCN(C(=O)CS)CC3)nc(N3CCOCC3)n2)cc(OC)c1OC ?
4.52

Give its pIC50 value. Item: COc1cc(Nc2nc(C3=CCN(C(=O)c4ccc(Br)cc4O)CC3)nc(N3CCOCC3)n2)cc(OC)c1OC
4.55

Requested field: pIC50. Item: COc1cc(Nc2nc(C3=CCN(C(=O)Nc4ccc(F)c(F)c4)CC3)nc(N3CCOCC3)n2)cc(OC)c1OC
4.51

Entry under review: COC(=O)Nc1nc2cc(C(=O)c3cccs3)ccc2[nH]1 . Reported pIC50?
5.82

I am curious: what pIC50 value has been reported for COc1cc(Nc2nc(C3=CCN(C(=O)Nc4ccc(F)cc4)CC3)nc(N3CCOCC3)n2)cc(OC)c1OC ?
4.59

Dear colleague, I am looking for the recorded pIC50 of the following molecule: COc1cc(Nc2nc(C3=CCN(C(=O)Nc4ccncc4)CC3)nc(N3CCOCC3)n2)cc(OC)c1OC
4.41

Please give the measured pIC50 for this molecule: CCN1CCN(C(=O)N2CC=C(c3nc(Nc4cc(OC)c(OC)c(OC)c4)nc(N4CCOCC4)n3)CC2)CC1
4.52
